- systemTested: Voltage-gated inwardly rectifying potassium channel KCNH2 (Homo sapiens) (UniProt Q12809)
- Sequence (Q12809 whole entry, looked up): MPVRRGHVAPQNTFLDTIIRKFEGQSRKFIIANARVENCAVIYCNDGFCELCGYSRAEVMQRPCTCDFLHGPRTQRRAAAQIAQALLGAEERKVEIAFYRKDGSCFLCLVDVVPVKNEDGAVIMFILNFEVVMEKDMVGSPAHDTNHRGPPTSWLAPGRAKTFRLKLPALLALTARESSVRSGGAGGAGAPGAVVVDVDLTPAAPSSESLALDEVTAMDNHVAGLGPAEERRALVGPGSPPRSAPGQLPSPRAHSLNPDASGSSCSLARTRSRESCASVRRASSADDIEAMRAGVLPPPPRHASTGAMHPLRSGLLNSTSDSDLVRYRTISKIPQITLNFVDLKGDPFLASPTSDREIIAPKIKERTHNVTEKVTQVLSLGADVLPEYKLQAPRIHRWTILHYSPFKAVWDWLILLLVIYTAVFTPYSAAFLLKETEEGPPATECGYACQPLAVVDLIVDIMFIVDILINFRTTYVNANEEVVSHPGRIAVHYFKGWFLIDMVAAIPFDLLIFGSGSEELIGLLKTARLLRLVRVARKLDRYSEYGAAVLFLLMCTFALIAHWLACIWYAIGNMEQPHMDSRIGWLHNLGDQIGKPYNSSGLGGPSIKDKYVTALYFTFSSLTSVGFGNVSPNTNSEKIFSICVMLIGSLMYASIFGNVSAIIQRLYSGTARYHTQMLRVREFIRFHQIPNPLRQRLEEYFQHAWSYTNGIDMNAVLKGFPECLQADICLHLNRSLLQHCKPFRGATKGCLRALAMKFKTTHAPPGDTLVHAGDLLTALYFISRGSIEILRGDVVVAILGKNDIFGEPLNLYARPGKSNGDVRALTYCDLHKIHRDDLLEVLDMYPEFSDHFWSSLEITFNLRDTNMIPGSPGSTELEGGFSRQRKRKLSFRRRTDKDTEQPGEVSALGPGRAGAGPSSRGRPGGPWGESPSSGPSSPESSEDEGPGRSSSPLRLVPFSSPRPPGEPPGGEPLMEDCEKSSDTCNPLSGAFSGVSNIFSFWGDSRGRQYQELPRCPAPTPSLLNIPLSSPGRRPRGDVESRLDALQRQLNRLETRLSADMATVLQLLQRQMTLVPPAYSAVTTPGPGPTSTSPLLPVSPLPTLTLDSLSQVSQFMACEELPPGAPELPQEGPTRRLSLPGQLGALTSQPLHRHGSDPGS
- testProtocol: qHTS Assay for Small Molecule Inhibitors of the Human hERG Channel Activity (AID 588834);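 further: lower thallium flux fluorescence means stronger hERG block; nearly all actives have a fitted effect of over 50% in size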
- conditionsUsed: U2OS BacMam hERG, FluxOR thallium flux fluorescence; series mostly up to 46.1 µM
Inconclusive results are not listed. Active and inactive are the calls of the source. The call rests on the fitted dose curve; in most records, active means well fitted inhibition curve with a large enough effect; inconclusive means small, poorly fitted or top-dose-only effect; inactive means flat fitted curve, though single readings scatter.
# output must be one of active, inactive

{"columns": ["compound", "answerLabel"],
 "data": [
  ["Fc1cccc(/C=N/N=C/c2cccc(F)c2)c1", "inactive"],
  ["CC(C)NC[C@H](O)COc1cccc2[nH]ccc12", "inactive"],
  ["O=C1O/C(=C/Br)CCC1c1cccc2ccccc12 (stereo unspecified)", "active"],
  ["CN(C)CCn1nnnc1SCC1=C(C(=O)O)N2C(=O)[C@@H](NC(=O)Cc3csc(N)n3)[C@H]2SC1", "inactive"],
  ["C=CCCCCCCCCC(=O)O", "inactive"]
]}

// next entry
Each compound tested received a call. Report the one for Cc1nc2ccccc2n1Cc1ccc(Cl)cc1 . inactive

---

- Tested on: C33A
- testProtocol: Primary qHTS to identify gynecologic anti-cancer compounds using libraries of approved drugs and bioactive compounds (AID 1345084); further: nearly all actives have a fitted effect of over 55% in size
- conditionsUsed: Gynecologic cancer cell panel viability, ATPlite luminescence, 48 h; series mostly up to 57.5 µM
Results filed as inconclusive are left out. Activity calls are given as the source filed them. The call rests on the fitted dose curve; in most records, active means well fitted cell-killing curve with a large enough effect; inconclusive means small, poorly fitted or top-dose-only effect, or effect the other way; inactive means flat fitted curve, though single readings scatter.
# output must be one of 1 for active, -1 for inactive

See these solved cases before continuing.
{"columns": ["compound", "answerLabel"],
 "data": [
  ["Nc1c(CC(=O)O)cccc1C(=O)c1ccc(Br)cc1", -1],
  ["NC(=O)C(c1ccccc1)(c1ccccc1)[C@@H]1CCN(CCc2ccc3c(c2)CCO3)C1", -1],
  ["CCCCN(CC)c1nc(C)nc2c1c(C)cn2-c1c(C)cc(C)cc1C", -1],
  ["O=C(O)CC1CC(c2ccccc2)=NO1 (centres undefined)", -1],
  ["CCOC(=O)c1ccccc1O", -1]
]}

Each compound tested received a call. Report the one for Cc1ccc(O)c(-n2nc3ccccc3n2)c1 . -1

Each compound tested received a call. Report the one for CC(=O)SCC(CC(=O)c1ccc(C)cc1)C(=O)O (centres undefined) . -1

Each compound tested received a call. Report the one for O=C(O)Cc1ccc(-c2ccccc2)cc1 . -1

Each compound tested received a call. Report the one for CN(C)c1ccc(N=NS(=O)(=O)O)cc1 . -1

Each compound tested received a call. Report the one for O=C(Nc1ccc2[nH]ncc2c1)C1CCC1 . -1

Each compound tested received a call. Report the one for C[N+]1(C)[C@@H]2CC(OC(=O)[C@H](CO)c3ccccc3)C[C@H]1[C@@H]1O[C@@H]12 (some centres undefined) . -1

Each compound tested received a call. Report the one for NS(=O)(=O)c1ccc(-n2nc(C(F)(F)F)cc2-c2ccc(Cl)cc2)cc1 . -1

Each compound tested received a call. Report the one for O=C(O)[C@H](CC(=O)N1C[C@H]2CCCC[C@H]2C1)Cc1ccccc1 . -1

Each compound tested received a call. Report the one for Cc1ccc(C(=O)c2ccc(CC(=O)O)n2C)cc1 . -1

Each compound tested received a call. Report the one for CC(=O)c1ccc(OCC(=O)N2CCCCC2)cc1 . -1

Each compound tested received a call. Report the one for CN1[C@@H]2CC[C@H]1CC(OC(=O)C(CO)c1ccccc1)C2 (some centres undefined) . -1

Each compound tested received a call. Report the one for COC(=O)C1=C(C)NC(C)=C(C(=O)OC)C1c1cccc(NC(=O)NCCCN2CCC(c3cccc(OC)c3)CC2)c1 . -1

Each compound tested received a call. Report the one for COc1cc(NC(C)CCCN)c2ncccc2c1 (centres undefined) . -1

Each compound tested received a call. Report the one for O=C(OCc1ccccc1)c1ccccc1 . -1

Each compound tested received a call. Report the one for COC(=O)Nc1nc2ccc(C(=O)C3CC3)cc2[nH]1 . 1
